test: Pharmacokinetic screening in dogs, oral administration, plasma LC-MS/MS; conditions: dogs, single oral dose (0.3 mg/kg per FIG. 1), time 1440 min
measured.parameter: LC/MS analysis, plasma level at time 1440

{"compound": "CC(=O)N1CCC(NC(=O)NC23CC4CC(CC(C4)C2)C3)CC1 [Compound 1153]", "numeric.value": 0.00}
{"compound": "O=C(NC1CCN(C(=O)c2ccccc2)CC1)NC12CC3CC(CC(C3)C1)C2 [Compound 1159]", "numeric.value": 0.00}
{"compound": "CCC(=O)N1CCC(NC(=O)NC23CC4CC(CC(C4)C2)C3)CC1 [Compound 1163]", "numeric.value": 0.00}

I = CC(=O)N1CCC(NC(=O)Nc2ccc(OC(F)(F)F)cc2)CC1 [Compound 1555]
II = O=C(NC1CCN(C(=O)c2ccccn2)CC1)NC12CC3CC(CC(C3)C1)C2 [Compound 1201]
[in] # returns the entry with the larger LC/MS analysis, plasma level at time 1440; inputs I and II To answer, give the label that identifies your chosen option.
[out] I
(I: 266.29, II: 0.00)

====

experiment: Pharmacokinetic screening in dogs, oral administration, plasma LC-MS/MS; details: dogs, single oral dose (0.3 mg/kg per FIG. 1), time 15 min
measured.parameter: LC/MS analysis, plasma level at time 15

Here's what some known entries look like.
{"compound.smiles": "O=C(NC1CCN(C(=O)c2ccccc2)CC1)NC12CC3CC(CC(C3)C1)C2", "LC/MS analysis, plasma level at time 15": 7.26}
{"compound.smiles": "CC(=O)N1CCC(NC(=O)NC23CC4CC(CC(C4)C2)C3)CC1", "LC/MS analysis, plasma level at time 15": 288.97}
{"compound.smiles": "O=C(NC1CCN(C(=O)C(F)(F)F)CC1)NC12CC3CC(CC(C3)C1)C2", "LC/MS analysis, plasma level at time 15": 0.00}
{"compound.smiles": "COC(=O)c1ccc(C(=O)N2CCC(NC(=O)NC34CC5CC(CC(C5)C3)C4)CC2)cc1", "LC/MS analysis, plasma level at time 15": 0.00}

P = COC(=O)CCCC(=O)N1CCC(NC(=O)NC23CC4CC(CC(C4)C2)C3)CC1
Q = CC(=O)N1CCC(NC(=O)Nc2ccc(OC(F)(F)F)cc2)CC1
[in] Given the two records P and Q , choose the one whose LC/MS analysis, plasma level at time 15 value is lower. To answer, give the label that identifies your chosen option.
[out] P

1 = O=C(NC1CCN(C(=O)c2ccccn2)CC1)NC12CC3CC(CC(C3)C1)C2
2 = O=C(NCC1CCN(C(=O)c2ccccc2)CC1)NC12CC3CC(CC(C3)C1)C2
[in] For the pair 1 and 2 , which member has the lower LC/MS analysis, plasma level at time 15 number? Selection: enter the item's label.
[out] 2
(2: 4.86, 1: 9.19)

====

experiment: Pharmacokinetic screening in dogs, oral administration, plasma LC-MS/MS; conditions: dogs, single oral dose (0.3 mg/kg per FIG. 1), time 1440 min
measured.parameter: LC/MS analysis, plasma level at time 1440

Examples with their reported LC/MS analysis, plasma level at time 1440 follow.
{"compound": "COC(=O)CCCC(=O)N1CCC(NC(=O)NC23CC4CC(CC(C4)C2)C3)CC1 [Compound 1206]", "numeric.value": 0.00}
{"compound": "CCCC(=O)N1CCC(NC(=O)NC23CC4CC(CC(C4)C2)C3)CC1 [Compound 1157]", "numeric.value": 0.00}

I = COC(=O)c1ccc(C(=O)N2CCC(NC(=O)NC34CC5CC(CC(C5)C3)C4)CC2)cc1 [Compound 1204]
II = O=C(NCC1CCN(C(=O)c2ccccc2)CC1)NC12CC3CC(CC(C3)C1)C2 [Compound 1121]
[in] From the recorded data, which exceeds the other in LC/MS analysis, plasma level at time 1440: I or II ? State your choice using its label.
[out] II

====

experiment: Pharmacokinetic screening in dogs, oral administration, plasma LC-MS/MS; conditions: dogs, single oral dose (0.3 mg/kg per FIG. 1), time 30 min
measured.parameter: LC/MS analysis, plasma level at time 30

See these solved cases before continuing.
{"compound.smiles": "O=C(NCC1CCN(C(=O)c2ccccc2)CC1)NC12CC3CC(CC(C3)C1)C2", "measured.parameter": "LC/MS analysis, plasma level at time 30", "numeric.value": 3.81}
{"compound.smiles": "CC(=O)N1CCC(NC(=O)NC23CC4CC(CC(C4)C2)C3)CC1", "measured.parameter": "LC/MS analysis, plasma level at time 30", "numeric.value": 276.16}
{"compound.smiles": "CC(=O)N1CCC(NC(=O)Nc2ccc(OC(F)(F)F)cc2)CC1", "measured.parameter": "LC/MS analysis, plasma level at time 30", "numeric.value": 45.76}
{"compound.smiles": "CCCC(=O)N1CCC(NC(=O)NC23CC4CC(CC(C4)C2)C3)CC1", "measured.parameter": "LC/MS analysis, plasma level at time 30", "numeric.value": 5.18}

A = O=C(NC1CCN(C(=O)c2ccccc2)CC1)NC12CC3CC(CC(C3)C1)C2
B = O=C(NC1CCN(C(=O)C(F)(F)F)CC1)NC12CC3CC(CC(C3)C1)C2
C = O=C(NC1CCN(C(=O)c2ccccn2)CC1)NC12CC3CC(CC(C3)C1)C2
D = COC(=O)c1ccc(C(=O)N2CCC(NC(=O)NC34CC5CC(CC(C5)C3)C4)CC2)cc1
[in] Parameters: sort_field (LC/MS analysis, plasma level at time 30), sort_dir (desc). # format: label list in the order the request specifies
[out] C, A, B, D
(C: 32.65, A: 7.82, B: 1.61, D: 0.19)

====

test: Pharmacokinetic screening in dogs, oral administration, plasma LC-MS/MS; conditions: dogs, oral, dose-normalised
measured.parameter: AUCINF_D_pred (kg·nM·min/mg)

{"compound.smiles": "CCC(=O)N1CCC(NC(=O)NC23CC4CC(CC(C4)C2)C3)CC1", "AUCINF_D_pred, kg·nM·min/mg": 18504}

P = O=C(NC1CCN(C(=O)C(F)(F)F)CC1)NC12CC3CC(CC(C3)C1)C2
Q = CC(=O)N1CCC(NC(=O)NC23CC4CC(CC(C4)C2)C3)CC1
[in] Just tell me: smaller AUCINF_D_pred value, P or Q ? Write the label of whichever entry you select.
[out] P

I = O=C(NC1CCN(C(=O)c2ccccn2)CC1)NC12CC3CC(CC(C3)C1)C2
II = CC(=O)N1CCC(NC(=O)Nc2ccc(OC(F)(F)F)cc2)CC1
[in] Of the pair I and II , name the member with the lesser recorded AUCINF_D_pred. State the label of the item chosen.
[out] I
(I: 16100 kg·nM·min/mg, II: 13002825 kg·nM·min/mg)

====

assay: Pharmacokinetic screening in dogs, oral administration, plasma LC-MS/MS; details: dogs, single oral dose (0.3 mg/kg per FIG. 1), time 60 min
measured.parameter: LC/MS analysis, plasma level at time 60

# example entries with known answers
{"compound.smiles": "O=C(NC1CCN(C(=O)c2ccccn2)CC1)NC12CC3CC(CC(C3)C1)C2", "LC/MS analysis, plasma level at time 60": 42.48}
{"compound.smiles": "O=C(NC1CCN(C(=O)C(F)(F)F)CC1)NC12CC3CC(CC(C3)C1)C2", "LC/MS analysis, plasma level at time 60": 4.82}
{"compound.smiles": "O=C(NCC1CCN(C(=O)c2ccccc2)CC1)NC12CC3CC(CC(C3)C1)C2", "LC/MS analysis, plasma level at time 60": 1.98}
{"compound.smiles": "CCC(=O)N1CCC(NC(=O)NC23CC4CC(CC(C4)C2)C3)CC1", "LC/MS analysis, plasma level at time 60": 31.79}

P = CC(=O)N1CCC(NC(=O)Nc2ccc(OC(F)(F)F)cc2)CC1
Q = O=C(NC1CCN(C(=O)c2ccccc2)CC1)NC12CC3CC(CC(C3)C1)C2
R = CC(=O)N1CCC(NC(=O)NC23CC4CC(CC(C4)C2)C3)CC1
[in] Task for the reader: rank each entry by its LC/MS analysis, plasma level at time 60, from the minimum upward. Please reply with the labels ordered as requested. Many thanks.
[out] Q, P, R

A = COC(=O)c1ccc(C(=O)N2CCC(NC(=O)NC34CC5CC(CC(C5)C3)C4)CC2)cc1
B = COC(=O)CCCC(=O)N1CCC(NC(=O)NC23CC4CC(CC(C4)C2)C3)CC1
[in] For the pair A and B , which entry has the numerically smaller recorded LC/MS analysis, plasma level at time 60? Use the label to indicate which entry you chose.
[out] B
(B: 0.00, A: 0.34)

====

target: human sEH (Homo sapiens (Human)); assay: Inhibition of human soluble epoxide hydrolase (IC50; one of three substrate methods); assay type: biochemical; conditions: recombinant human sEH;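 also: enzyme expressed in baculovirus and affinity-purified, assays run in triplicate, with substrate and read-out differing among the three methods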
Sequence (P34913 whole entry): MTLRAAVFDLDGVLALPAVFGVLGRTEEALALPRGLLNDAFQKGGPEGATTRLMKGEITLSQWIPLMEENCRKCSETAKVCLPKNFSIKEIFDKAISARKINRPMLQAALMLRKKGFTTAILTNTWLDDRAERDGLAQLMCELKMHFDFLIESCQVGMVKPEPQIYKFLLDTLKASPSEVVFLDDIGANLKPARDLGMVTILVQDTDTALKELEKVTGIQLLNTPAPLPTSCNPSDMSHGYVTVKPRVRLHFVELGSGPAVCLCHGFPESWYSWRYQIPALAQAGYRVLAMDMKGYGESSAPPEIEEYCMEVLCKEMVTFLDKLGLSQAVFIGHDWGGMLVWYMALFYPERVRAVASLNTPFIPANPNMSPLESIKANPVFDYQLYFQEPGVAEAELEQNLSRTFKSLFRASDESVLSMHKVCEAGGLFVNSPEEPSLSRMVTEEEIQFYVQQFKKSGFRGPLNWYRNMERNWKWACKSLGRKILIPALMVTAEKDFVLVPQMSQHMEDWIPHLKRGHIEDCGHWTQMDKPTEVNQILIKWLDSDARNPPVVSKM
pIC50: −log10 of the molar value.
measured.parameter: pIC50

Take a look at these entries with their results.
{"compound.smiles": "COC(=O)c1ccccc1C(=O)N1CCC(NC(=O)NC23CC4CC(CC(C4)C2)C3)CC1", "pIC50": 8.77}
{"compound.smiles": "O=C(NC1CCCCC1)NC12CN3CN(CN(C3)C1)C2", "pIC50": 4.87}
{"compound.smiles": "O=C(NCC1CCN(C(=O)C(F)(F)F)CC1)NC12CC3CC(CC(C3)C1)C2", "pIC50": 8.74}
{"compound.smiles": "COC(=O)CCCC(=O)N1CCC(CNC(=O)NC23CC4CC(CC(C4)C2)C3)CC1", "pIC50": 8.47}
{"compound.smiles": "CC(=O)N1CCC(NC(=O)CC23CC4CC(CC(C4)C2)C3)CC1", "pIC50": 6.56}

I = O=C(NCC1CCN(C(=O)c2cccnc2)CC1)NC12CC3CC(CC(C3)C1)C2
II = CN(C)c1cccc2c(S(=O)(=O)N3CCC(NC(=O)Nc4ccc(OC(F)(F)F)cc4)CC3)cccc12
[in] // which entry has the larger pIC50 value, I or II ? Answer = label.
[out] II

Values compiled from patent US8501783B2.
